Reported pIC50 values follow for various compounds
System: MDA468
Assay: MTT cytotoxicity assay, MDA468 cells
Type: cell-based, human
Settings: Homo sapiens, 96 h, read-out: IC50 MDA468
Protocol: The antiproliferative activity of the resveratrol analogues was investigated using a human breast cell line panel, which has been characterised for CYP1 expression in our laboratories. IC50 values for both cis- and trans-isomers were determined using a standard 3-[4,5-dimethylthiazol-2-yl]-2,5-diphenyl tetrazolium bromide (MTT) cell viability assay and are shown in Table 1 (trans-stilbene analogues) and Table 2 (cis-stilbene analogues). […]
Value format note: pIC50 is -log10 of concentration (mol/L); just state the number.

{"COMPOUND": "COc1ccc(/C=C/c2cc(OC)c(OC)c(OC)c2)cc1 [DMU212, (E)-4,3′,4′,5′-tetramethoxystilbene]", "STUDY TARGET": "MDA468", "pIC50": 9.00}

Attention now shifts to the item below.
Fill in the blank: the reported pIC50 of COc1ccc(/C=C\c2cc(OC)c(OC)c(OC)c2)cc1 is ____.
6.30

----------
System: MCF10A
Test: MTT cytotoxicity assay, MCF10A non-tumour control cells
Assay type: cell-based
Details: Homo sapiens, MCF-10A; MTT assay, 96 h incubation, non-tumour control cells; read-out: IC50 MCF10A
MEASURED PROPERTY: IC50

{"COMPOUND": "COc1ccc(/C=C/c2cc(OC)cc(OC)c2)cc1 [DMU271]", "MEASURED RESULT": "> 100 µM"}

Attention now shifts to the item below.
Fill in the blank: the reported IC50 of COc1cc(/C=C/c2ccc(OC)c3ccccc23)cc(OC)c1OC [DMU569] is ____.
40 µM

----------
Tested on: MCF10A
Test: MTT cytotoxicity assay, MCF10A non-tumour control cells
Format: cell-based
Settings: Homo sapiens, MCF-10A; MTT assay, 96 h incubation, non-tumour control cells; read-out: IC50 MCF10A
MEASURED PROPERTY: IC50 (µM)
Your answer should be a plain number; it is taken to be in µM.

Completed entries (count: 3):
{"MOLECULE": "COc1ccc(/C=C/c2ccc(OC)c(OC)c2OC)cc1", "STUDY TARGET": "MCF10A", "IC50, µM": 20}
{"MOLECULE": "COc1cc(/C=C\\c2ccc(Cl)cc2)cc(OC)c1OC", "STUDY TARGET": "MCF10A", "IC50, µM": 35}
{"MOLECULE": "COc1cc(/C=C\\c2ccc3c(c2)OCO3)cc(OC)c1OC", "STUDY TARGET": "MCF10A", "IC50, µM": 20}

Attention now shifts to the item below.
Fill in the blank: the reported IC50 of Oc1ccc(/C=C/c2cc(O)cc(O)c2)cc1 [Resveratrol, (E)-4,3′,5′-trihydroxy stilbene] is ____.
50

----------
Test system: MCF7 (TCDD)
Test: MTT cytotoxicity assay, TCDD-induced MCF7 cells
Assay type: cell-based, human
Conditions: MTT assay, 96 h incubation; cells induced with 10 nM TCDD for 24 h; read-out: IC50 MCF7 (TCDD)
MEASURED PROPERTY: IC50 (nM)
Your answer should be a plain number; it is taken to be in nM.

Fill in the blank: the reported IC50 of COc1ccc(/C=C\c2cc(OC)c(OC)c(OC)c2)c(OC)c1 is ____.
7

----------
Reported pIC50 values follow for various compounds
Test system: MCF10A
Assay: MTT cytotoxicity assay, MCF10A non-tumour control cells
Assay type: cell-based
Details: Homo sapiens, MCF-10A; MTT assay, 96 h incubation, non-tumour control cells; read-out: IC50 MCF10A
Value format note: pIC50 is -log10 of concentration (mol/L); just state the number.

Completed entries (count: 4):
{"SMILES RECORD": "COc1cc(/C=C\\c2ccc(Br)cc2)cc(OC)c1OC", "pIC50": 7.30}
{"SMILES RECORD": "CCOc1ccc(/C=C/c2cc(OC)c(OC)c(OC)c2)cc1", "pIC50": 5.43}
{"SMILES RECORD": "CCOc1ccc(/C=C\\c2cc(OC)c(OC)c(OC)c2)cc1", "pIC50": 7.22}
{"SMILES RECORD": "COc1cc(/C=C/c2ccc(Cl)cc2)cc(OC)c1OC", "pIC50": 5.10}

Fill in the blank: the reported pIC50 of COc1cc(/C=C/c2ccc(Br)cc2)cc(OC)c1OC is ____.
4.70

Fill in the blank: the reported pIC50 of COc1ccc(/C=C\c2ccc(OC)c(OC)c2OC)cc1 is ____.
4.00

Fill in the blank: the reported pIC50 of COc1cc(/C=C/c2ccc3c(c2)OCO3)cc(OC)c1OC is ____.
5.41
